pIC50: −log10 of the molar value.
Field: pIC50. System: Proto-oncogene tyrosine-protein kinase Src (Gallus gallus). Provenance: assorted publications.

Lab note: measured pIC50 of COc1cc(OC)cc(-c2cc3cnc(N)nc3nc2N)c1 was < 4.30

// CN(C)c1cc(-c2cc3cnc(N)nc3nc2NC(=O)NC(C)(C)C)cc(N(C)C)c1 : pIC50 value = < 4.30

get_value(item= COCCOc1ccc2cc(-c3nn(CC4CCN(C)CC4)c4ncnc(N)c34)ccc2c1 , readout=pIC50) returns < 5.00

The compound listed as CN1CCC(Cn2nc(-c3ccc4nc(OC5CC5)ccc4c3)c3c(N)ncnc32)CC1 has a reported pIC50 of < 5.00

***
For record Cc1cc(C)c(C)c(-c2cc3cnc(N)nc3nc2NC(=O)NC(C)(C)C)c1C the listed pIC50 is < 4.30

So, COc1cc(OC)cc(-c2cc3cnc(NCCCO)nc3nc2NC(=O)NC(C)(C)C)c1 ? Its pIC50 was < 4.30
